- Tested on: MDR1-MDCK cell monolayers
- conditions_used: dog, MDCK-MDR1, 120 min, 5 μM, pH 7.4
endpoint: MDCK-MDR1: % Recov A-B (%)
Entry rule: numbers only, all in %.

Below, each entry is followed by its recorded MDCK-MDR1: % Recov A-B result.
[[record]]
molecule = "CN(c1ccc(-c2cnc(C#N)cc2O)nn1)[C@H]1C[C@@H]2CC[C@@H](N2)[C@H]1F (single isomer, unassigned) [Compound 71B]"
endpoint = "MDCK-MDR1: % Recov A-B"
quantitative_readout = 90

[[record]]
molecule = "CN(c1ccc(-c2cn3c(=O)ccnc3cc2O)nn1)[C@@H]1C[C@H]2CC[C@H](N2)[C@@H]1F (single isomer, unassigned) [Compound 82A]"
endpoint = "MDCK-MDR1: % Recov A-B"
quantitative_readout = 104

[[record]]
molecule = "CN(c1ccc(-c2cn3c(=O)ccnc3cc2O)nn1)[C@@H]1C[C@H]2CC[C@@H]([C@@H]1F)N2C (single isomer, unassigned) [Compound 95A]"
endpoint = "MDCK-MDR1: % Recov A-B"
quantitative_readout = 85

[[record]]
molecule = "Cc1cc(=O)c2cc(O)c(-c3ccc(N(C)[C@@H]4C[C@H]5CC[C@@H]([C@@H]4F)N5C)nn3)cc2o1 [Compound 99A]"
endpoint = "MDCK-MDR1: % Recov A-B"
quantitative_readout = 114

[[record]]
molecule = "CN(c1ccc(-c2cc3ncn(CC(F)(F)F)c(=O)c3cc2O)nn1)[C@H]1C[C@@H]2CCC[C@H]([C@H]1F)N2C (single isomer, unassigned) [Compound 109B]"
endpoint = "MDCK-MDR1: % Recov A-B"
quantitative_readout = 74


**Q:** Looking for the measured MDCK-MDR1: % Recov A-B of CCc1cn(-c2ccc(-c3ccc(N(C)[C@@H]4C[C@H]5CC(F)(F)[C@@H](C4)N5)nn3)c(O)c2)nn1 (single isomer, unassigned) [Compound 64A] , can you help?
**A:** 64
